Measured CONC at T = 4 weeks, listed per entry for reference.
assay_details: Stability of second liquid vitamin formulation (Example 1), stored at 40° C., HPLC
Assay type: physicochemical
test_settings: stored at 40° C., 4 weeks

Previously resolved entries follow.
CC(C)(CO)[C@@H](O)C(=O)NCCCO | 2.69 g % g of solution
NC(=O)c1cccnc1 [Vitamin B3, niacinamide] | 8 g % g of solution
O=C(O)CCCC[C@@H]1SC[C@@H]2NC(=O)N[C@@H]21 | 0.021 g % g of solution
Cc1ncc(CO)c(CO)c1O.OCl [Vitamin B6, pyridoxine chlorohydrate] | 0.329 g % g of solution

Query string: // fetch CONC at T = 4 weeks given entry "Cc1cc2nc3c(=O)[nH]c(=O)nc-3n(C[C@H](O)[C@H](O)[C@H](O)CO)c2cc1C"
Result string: 1.01 g % g of solution

* * *

assay_details: Stability of second liquid vitamin formulation (Example 1), stored at 40° C., HPLC
Assay type: physicochemical
test_settings: stored at 40° C., 1 week
Entries and their CONC at T = 1 week values follow.

Completed entries (count: 4):
Cc1ncc(CO)c(CO)c1O.OCl [Vitamin B6, pyridoxine chlorohydrate] | 0.32 g % g of solution
Cc1cc2nc3c(=O)[nH]c(=O)nc-3n(C[C@H](O)[C@H](O)[C@H](O)CO)c2cc1C | 1.08 g % g of solution
CC(C)(CO)[C@@H](O)C(=O)NCCCO | 2.64 g % g of solution
O=C(O)CCCC[C@@H]1SC[C@@H]2NC(=O)N[C@@H]21 | 0.022 g % g of solution

Query string: Identify measured CONC at T = 1 week corresponding to NC(=O)c1cccnc1 [Vitamin B3, niacinamide]
Result string: 7.98 g % g of solution

* * *

assay_details: Stability of second liquid vitamin formulation (Example 1), stored at 40° C., HPLC
Format: physicochemical
test_settings: stored at 40° C., 3 weeks
experimental_readout: CONC at T = 3 weeks

# example entries with known answers
Cc1ncc(CO)c(CO)c1O.OCl [Vitamin B6, pyridoxine chlorohydrate] | 0.333 g % g of solution
Cc1cc2nc3c(=O)[nH]c(=O)nc-3n(C[C@H](O)[C@H](O)[C@H](O)CO)c2cc1C | 1.04 g % g of solution
NC(=O)c1cccnc1 [Vitamin B3, niacinamide] | 7.85 g % g of solution
CC(C)(CO)[C@@H](O)C(=O)NCCCO | 2.64 g % g of solution

We now examine a further compound.
Query string: Indicate its recorded CONC at T = 3 weeks; the compound in question is "O=C(O)CCCC[C@@H]1SC[C@@H]2NC(=O)N[C@@H]21"
Result string: 0.021 g % g of solution

* * *

assay_details: Stability of second liquid vitamin formulation (Example 1), stored at 40° C., HPLC
Assay type: physicochemical
test_settings: immediately after preparation
Measured CONC at T = 0 of individual entries

NC(=O)c1cccnc1 [Vitamin B3, niacinamide] | 8 g % g of solution
CC(C)(CO)[C@@H](O)C(=O)NCCCO [Vitamin B5, dexpanthénol] | 2.63 g % g of solution
Cc1ncc(CO)c(CO)c1O.OCl [Vitamin B6, pyridoxine chlorohydrate] | 0.355 g % g of solution
Cc1cc2nc3c(=O)[nH]c(=O)nc-3n(C[C@H](O)[C@H](O)[C@H](O)CO)c2cc1C [Vitamin B2, riboflavin] | 1 g % g of solution

Could you now look at the following compound, please?
Query string: Write down CONC at T = 0 measured for item O=C(O)CCCC[C@@H]1SC[C@@H]2NC(=O)N[C@@H]21 [Vitamin H, biotine]
Result string: 0.021 g % g of solution

* * *

assay_details: Stability of second liquid vitamin formulation (Example 1), stored at 40° C., HPLC
Format: physicochemical
test_settings: stored at 40° C., 2 weeks
experimental_readout: CONC at T = 2 weeks

Worked examples, 4 molecules total:
CC(C)(CO)[C@@H](O)C(=O)NCCCO | 2.65 g % g of solution
NC(=O)c1cccnc1 [Vitamin B3, niacinamide] | 7.8 g % g of solution
Cc1cc2nc3c(=O)[nH]c(=O)nc-3n(C[C@H](O)[C@H](O)[C@H](O)CO)c2cc1C | 1.04 g % g of solution
O=C(O)CCCC[C@@H]1SC[C@@H]2NC(=O)N[C@@H]21 | 0.02 g % g of solution

The record that follows has no CONC at T = 2 weeks shown yet.
Query string: Supply recorded CONC at T = 2 weeks for Cc1ncc(CO)c(CO)c1O.OCl [Vitamin B6, pyridoxine chlorohydrate] here.
Result string: 0.33 g % g of solution
